Target: Catenin beta-1 (Homo sapiens)
Sequence (P35222 whole entry): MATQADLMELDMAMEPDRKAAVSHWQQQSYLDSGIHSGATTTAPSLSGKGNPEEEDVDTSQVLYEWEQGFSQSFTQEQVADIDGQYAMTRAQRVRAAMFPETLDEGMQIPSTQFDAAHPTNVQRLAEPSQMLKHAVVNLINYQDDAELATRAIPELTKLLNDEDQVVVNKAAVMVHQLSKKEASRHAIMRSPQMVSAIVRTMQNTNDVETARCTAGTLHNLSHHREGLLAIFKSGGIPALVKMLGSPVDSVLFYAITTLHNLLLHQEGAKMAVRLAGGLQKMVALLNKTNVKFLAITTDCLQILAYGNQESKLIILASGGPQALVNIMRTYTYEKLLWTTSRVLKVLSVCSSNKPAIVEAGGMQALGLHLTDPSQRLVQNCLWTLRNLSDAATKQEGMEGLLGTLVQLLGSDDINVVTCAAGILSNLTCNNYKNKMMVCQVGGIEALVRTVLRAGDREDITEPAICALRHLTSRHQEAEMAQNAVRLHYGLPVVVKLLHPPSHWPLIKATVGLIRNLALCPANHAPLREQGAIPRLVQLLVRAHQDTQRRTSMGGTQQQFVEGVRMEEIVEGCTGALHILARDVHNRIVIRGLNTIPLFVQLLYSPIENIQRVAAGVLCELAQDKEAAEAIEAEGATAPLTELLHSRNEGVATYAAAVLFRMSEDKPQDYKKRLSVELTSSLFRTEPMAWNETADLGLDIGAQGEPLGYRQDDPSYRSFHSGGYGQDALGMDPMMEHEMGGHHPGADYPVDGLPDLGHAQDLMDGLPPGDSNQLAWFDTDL
Give measured IC50 for each item. Keep answers brief.

Quick note, IC50 for COC(=O)[C@H](CCC(=O)O)NC(=O)[C@H](CC(=O)O)NC(=O)[C@H](Cc1ccc2ccccc2c1)NC(=O)Cc1nc2ccc(Cl)cc2o1 landed at > 400 µM

Quick note, IC50 for COC(=O)[C@H](CCC(=O)O)NC(=O)[C@H](CC(=O)O)NC(=O)[C@H](Cc1ccc2ccccc2c1)NC(=O)c1cc2cc(C)ccc2[nH]1 landed at > 400 µM

Quick note, IC50 for COC(=O)[C@H](CCC(=O)O)NC(=O)[C@H](CC(=O)O)NC(=O)[C@H](Cc1ccc2ccccc2c1)NC(=O)Cc1nc2cc(Cl)ccc2s1 landed at > 400 µM

Quick note, IC50 for COC(=O)[C@H](CCC(=O)O)NC(=O)[C@H](CC(=O)O)NC(=O)[C@H](Cc1ccc2ccccc2c1)NC(=O)Cc1c[nH]c2cc(Cl)ccc12 landed at > 400 µM

Quick note, IC50 for COC(=O)[C@H](CCC(=O)O)NC(=O)[C@H](CC(=O)O)NC(=O)[C@H](Cc1ccc2ccccc2c1)NC(=O)c1cc2ccc(Cl)cc2[nH]1 landed at 60 µM

Quick note, IC50 for COC(=O)[C@H](CCC(=O)O)NC(=O)[C@H](CC(=O)O)NC(=O)[C@H](Cc1ccc2ccccc2c1)NC(=O)Cc1nc2cc(Cl)ccc2[nH]1 landed at > 400 µM
